Molecular target: sigma receptors (Cavia porcellus, UniProt Q60492)
Construct: A brain of a Hartley guinea pig (weight: 300-400 g) was excised; from tissue; host or cells: Hartley guinea pig brain, membrane preparation
Sequence (Q60492 whole entry): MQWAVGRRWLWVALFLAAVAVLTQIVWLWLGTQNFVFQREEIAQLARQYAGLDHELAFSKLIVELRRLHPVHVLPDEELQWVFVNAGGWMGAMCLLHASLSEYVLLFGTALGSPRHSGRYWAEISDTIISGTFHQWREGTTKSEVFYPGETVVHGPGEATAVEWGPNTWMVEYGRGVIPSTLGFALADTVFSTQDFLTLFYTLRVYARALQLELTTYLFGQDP
Test: Experiment using [3H](+)-PTZ as a labeled ligand (affinity for sigma receptors)
Parameters: species or system Hartley guinea pig
Details: [3H](+)-PTZ 5 nM; guinea pig brain membrane; 37° C., 150 minutes; averages of 4-11 samples; read-out: IC50 (inhibition of specific binding of [3H](+)-PTZ)
Counter-ions that a name gives are not always drawn.
VALUE_KIND: pIC50
# log scale: pIC50 equals minus log10 of the concentration in mol/L

Record summary for COc1ccc(CCN2CCN(CCc3ccccc3)CC2)cc1OC [compound No. 1-2, dihydrochloride] : reported pIC50 = 7.74

Input COc1ccc(CCN2CCN(CCCCc3ccccc3)CC2)cc1OC.Cl.Cl [compound No. 1-4, dihydrochloride] . Output pIC50: 7.97

For COc1ccc(CCCN2CCN(CCCc3ccccc3)CC2)cc1OC.Cl.Cl [compound No. 1-6, dihydrochloride] the molecule record lists pIC50 as 7.83
